# subject_of_test: HIV-1 subtype C integrase (Human immunodeficiency virus type 1, UniProt Q9QN97, C991S/F896H)
# condition_description: read-out: 3' Processing IC50, Mn2+-based assay, 95% confidence interval in brackets
quantity: pIC50
Numbers only, as −log10 of the molar value.

Ask: What measured pIC50 goes with CCN1C[C@H](C)n2c(c(O)c3c(=O)n(Cc4ccc(F)c(Cl)c4)nc(C(=O)NC)c32)C1=O [MK-2048] ?
Reply: 6.72

----------
# subject_of_test: HIV-1 subtype B integrase (Human immunodeficiency virus type 1)
# Type: biochemical
# condition_description: Mg2+-based microtiter plate assay, 95% confidence interval in brackets, read-out: Strand Transfer IC50
quantity: pIC50
Give bare numbers, as −log10 of the molar value.

Ask: What measured pIC50 goes with CCN1C[C@H](C)n2c(c(O)c3c(=O)n(Cc4ccc(F)c(Cl)c4)nc(C(=O)NC)c32)C1=O [MK-2048] ?
Reply: 8.33
